- Test Description: Stability in human plasma
- Condition Label: after 4 hours, 37° C.
Measured residual percentage in HUMAN PLASMA values are reported for all entries that follow.
Express your answer as a number followed by its unit.

Enquiry: Give a short answer stating reported residual percentage in HUMAN PLASMA for FC(F)c1nnc(-c2ccc(Cn3nnc(-c4ccc5ccccc5n4)n3)cc2)o1 [compound 113] .
Return: 75%

Enquiry: Give a short answer stating reported residual percentage in HUMAN PLASMA for Nc1ccc(-c2cnn(Cc3ccc(-c4nnc(C(F)F)o4)cn3)c2)cn1 [compound 13] .
Return: 78%

Enquiry: Give a short answer stating reported residual percentage in HUMAN PLASMA for Cn1c(N)nc2cc(-c3cn(Cc4ccc(-c5nnc(C(F)F)o5)cn4)nn3)ccc21 [Compd. 17] .
Return: 82%

Enquiry: Give a short answer stating reported residual percentage in HUMAN PLASMA for NC(=O)c1cc(-c2nnn(Cc3ccc(-c4nnc(C(F)F)o4)cc3)n2)cnc1N [compound 76] .
Return: 74%

Enquiry: Give a short answer stating reported residual percentage in HUMAN PLASMA for CC(=O)c1cccc(-c2nnn(Cc3ccc(-c4nnc(C(F)F)o4)cc3)n2)c1 [compound 140] .
Return: 99%

Enquiry: Give a short answer stating reported residual percentage in HUMAN PLASMA for Nc1nc2ccc(-c3cn(Cc4ccc(-c5nnc(C(F)F)o5)cn4)nn3)cc2s1 [Compd. 1] .
Return: 85%

Enquiry: Give a short answer stating reported residual percentage in HUMAN PLASMA for FC(F)c1nnc(-c2ccc(Cn3nnnc3-c3csc4ccccc34)cc2)o1 [compound 288] .
Return: 78%

Enquiry: Give a short answer stating reported residual percentage in HUMAN PLASMA for CN(C)C(=O)c1cccc(-c2nnn(Cc3ccc(-c4nnc(C(F)F)o4)cc3)n2)c1 [compound 81] .
Return: 87%
